Tested on: SK-OV-3 ovarian
assay-summary: NCI-60 one-dose screen, 48 h
test-conditions: 10 µM unless noted
About 83,000 compounds went through this panel and 20% of them were active in at least one assay; those are over-represented in the sample as a whole. Active and inactive are the calls of the source. Rule for the calls: active = growth percent below 10; inactive = the rest.
Labels: Y for active, N for inactive

[
  {
    "compound": "N#C/C(C(=O)c1ccccc1)=C1/C(=O)Nc2ccc(Br)cc21",
    "cat": "N"
  },
  {
    "compound": "COc1ccc2[nH]c(C(=O)N3CCN(C(=O)OCc4ccc5c(Br)cc(Br)c(O)c5n4)CC3)cc2c1",
    "cat": "Y"
  },
  {
    "compound": "O=C1CC(c2ccccc2)Cc2nc3ccc(Cl)cc3cc21 (stereo not given)",
    "cat": "N"
  },
  {
    "compound": "CCOc1ccc(S(=O)(=O)Nc2ccc3c(c2)N(S(=O)(=O)CC)CCC3)cc1",
    "cat": "N"
  },
  {
    "compound": "CCOc1ccccc1/C=N\\Nc1ccc(S(=O)(=O)c2ccc(N/N=C/c3ccccc3OCC)cc2)cc1",
    "cat": "N"
  }
]
